Values from patent US7718680B2

I'd be grateful if you could share measured pIC50 for these entries.
- Tested On: Lethal Factor (LF) protease of anthrax toxin (Bacillus anthracis)
- Sequence (P15917 34-809 limits assumed): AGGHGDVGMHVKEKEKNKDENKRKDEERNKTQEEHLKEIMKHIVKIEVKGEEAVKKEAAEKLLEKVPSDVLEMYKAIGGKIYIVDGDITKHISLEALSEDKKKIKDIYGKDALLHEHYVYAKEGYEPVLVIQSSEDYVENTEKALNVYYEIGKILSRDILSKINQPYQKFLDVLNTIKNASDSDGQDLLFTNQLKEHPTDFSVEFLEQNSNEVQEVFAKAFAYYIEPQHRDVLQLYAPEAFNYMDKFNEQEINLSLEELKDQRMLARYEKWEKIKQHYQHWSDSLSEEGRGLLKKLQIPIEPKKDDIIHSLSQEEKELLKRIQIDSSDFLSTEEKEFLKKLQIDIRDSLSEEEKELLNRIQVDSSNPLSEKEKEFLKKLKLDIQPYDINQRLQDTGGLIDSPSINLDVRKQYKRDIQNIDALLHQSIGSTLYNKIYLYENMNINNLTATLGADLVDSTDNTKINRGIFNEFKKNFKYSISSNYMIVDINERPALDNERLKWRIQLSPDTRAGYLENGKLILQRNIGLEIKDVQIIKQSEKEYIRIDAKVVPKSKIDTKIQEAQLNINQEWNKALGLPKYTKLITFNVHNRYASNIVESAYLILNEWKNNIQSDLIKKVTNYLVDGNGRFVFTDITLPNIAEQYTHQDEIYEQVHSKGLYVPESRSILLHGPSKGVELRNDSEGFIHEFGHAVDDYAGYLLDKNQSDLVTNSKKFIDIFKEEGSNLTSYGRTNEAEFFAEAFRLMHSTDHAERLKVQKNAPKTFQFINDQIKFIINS
- Method: biochemical
Just the number, please; pIC50 means minus log10 of the concentration in mol/L.

Query for Lethal Factor (LF) protease of anthrax toxin (Bacillus anthracis): what pIC50 does the record show for O=C(O)CN1C(=O)S/C(=C\c2ccc(/C=C3\SC(=S)N(CC(=O)O)C3=O)s2)C1=O ?
5.80

Query for Lethal Factor (LF) protease of anthrax toxin (Bacillus anthracis): what pIC50 does the record show for O=C(O)CN1C(=O)/C(=C/c2ccc(-c3cc(C(F)(F)F)ccc3Cl)o2)SC1=S ?
5.23

---

- Tested On: Lethal Factor (LF) protease of anthrax toxin (Bacillus anthracis)
- Method: biochemical
Please note: TRUE applies when pIC50 Obs is 5 or greater, and FALSE applies otherwise.

Confirm if pIC50 Obs reported for the compound O=C(O)CN1C(=O)/C(=C/c2ccc(-c3ccccc3)s2)SC1=S is 5 or above.
TRUE

Confirm if pIC50 Obs reported for the compound O=C(O)CN1C(=O)S/C(=C\c2ccc(-c3ccc(Cl)c(Cl)c3)o2)C1=O is 5 or above.
TRUE

Confirm if pIC50 Obs reported for the compound CN1C(=N)NC(=O)/C1=C\c1ccc(-c2ccc(Cl)cc2)o1 is 5 or above.
FALSE

Confirm if pIC50 Obs reported for the compound O=C(O)CN1C(=O)/C(=C/c2ncc(-c3ccc(Br)cc3)s2)SC1=S is 5 or above.
TRUE

Confirm if pIC50 Obs reported for the compound O=C(O)CCN1C(=O)/C(=C/c2ccc(-c3ccc(Cl)cc3)o2)SC1=S is 5 or above.
TRUE

Confirm if pIC50 Obs reported for the compound O=C(O)CN1C(=O)/C(=C/c2ccc(-c3cc(C(F)(F)F)ccc3Cl)o2)SC1=S is 5 or above.
TRUE

Confirm if pIC50 Obs reported for the compound O=C(O)CN1C(=O)/C(=C/c2ccc(-c3ccc(Cl)cc3[N+](=O)[O-])o2)SC1=S is 5 or above.
TRUE

Confirm if pIC50 Obs reported for the compound O=C1NC(=S)NC(=O)C1=Cc1ccc(-c2cc(C(F)(F)F)ccc2Cl)o1 is 5 or above.
TRUE

Confirm if pIC50 Obs reported for the compound O=C(O)CN1C(=O)/C(=C/c2ccc(-c3ccc(Br)cc3)o2)SC1=S is 5 or above.
TRUE

Confirm if pIC50 Obs reported for the compound O=C(O)CN1C(=O)/C(=C/c2ccco2)SC1=S is 5 or above.
FALSE

Confirm if pIC50 Obs reported for the compound O=C1NC(=S)NC(=O)C1=Cc1ccc(-c2ccc(Cl)c(Cl)c2)o1 is 5 or above.
TRUE

Confirm if pIC50 Obs reported for the compound COc1ccc(-c2ccc(C=C3C(=O)NC(=S)NC3=O)o2)cc1Cl is 5 or above.
TRUE

Confirm if pIC50 Obs reported for the compound O=C1NC(=S)NC(=O)C1=Cc1ccc(-c2ccc(Cl)cc2)o1 is 5 or above.
TRUE

Confirm if pIC50 Obs reported for the compound O=C(O)CN1C(=O)/C(=C/c2ccc(-c3ccc(Cl)c(Cl)c3)o2)SC1=S is 5 or above.
TRUE

Confirm if pIC50 Obs reported for the compound O=C(O)CN1C(=O)/C(=C/c2cccs2)SC1=S is 5 or above.
FALSE

Confirm if pIC50 Obs reported for the compound O=C1NC(=S)NC(=O)C1=Cc1ccc(-c2ccccc2)s1 is 5 or above.
TRUE

Confirm if pIC50 Obs reported for the compound O=C(O)CN1C(=O)/C(=C/c2ccc(-c3cccs3)s2)SC1=S is 5 or above.
TRUE
